Tested on: V-C8 (BRCA2-deficient hamster cells)
Experiment: normalised cell viability (fraction of plate median); higher = more viable cells (less toxic)
Conditions: treatment time: 3 days; 5 µM
Counter-ions that a name gives are not always drawn. In all, about 1,300 compounds were measured (“normalised cell viability”: median about 1, lowest 2% from about 0.14 on). For the sample, the lowest values were picked, then their nearest neighbours and some compounds at random.
reported-endpoint: normalised cell viability
Give the value as a plain number.

Clc1ccc(COC(Cn2ccnc2)c2ccc(Cl)cc2Cl)cc1 (stereo not given) [Econazole nitrate]
0.938
CC/C(=C(\c1ccccc1)c1ccc(OCCN(C)C)cc1)c1ccccc1 [Tamoxifen citrate]
0.837
C=C(NC(=O)C(=C)NC(=O)c1csc(C2=N[C@@H]3c4csc(n4)[C@H]4NC(=O)c5csc(n5)[C@H]([C@](C)(O)[C@@H](C)O)NC(=O)[C@H]5CSC(=N5)/C(=C/C)NC(=O)[C@H]([C@@H](C)O)NC(=O)c5csc(n5)[C@]3(CC2)NC(=O)[C@H](C)NC(=O)C(=C)NC(=O)[C@H](C)NC(=O)[C@H]([C@@H](C)CC)N[C@@H]2C=Cc3c([C@H](C)O)cc(nc3[C@H]2O)C(=O)O[C@@H]4C)n1)C(N)=O
0.14

Q: Field: normalised cell viability (V-C8 (BRCA2-deficient hamster cells)). Entry: Cc1cc(N)c2ccccc2[n+]1CCCCCCCCCC[n+]1c(C)cc(N)c2ccccc21 [Dequalinium dichloride]
Result: 0.171

Q: Field: normalised cell viability (V-C8 (BRCA2-deficient hamster cells)). Entry: "CN(C)CCOc1ccc(/C(=C(/CCCl)c2ccccc2)c2ccccc2)cc1"
Result: 0.716
